B1: library; a variant is named by its letters at N, in order (parent)
chain: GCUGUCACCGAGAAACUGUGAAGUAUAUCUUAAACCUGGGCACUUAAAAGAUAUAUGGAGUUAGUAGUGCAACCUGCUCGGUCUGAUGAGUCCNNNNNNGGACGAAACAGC

variants of: B1; assay: FACS-Seq fitted mean relative fluorescence mCherry/BFP with ligand (log10 relative fluorescence); HEK293T; ligand: cyclic di-GMP (c-di-GMP-II aptamer); ligand concentration (+) FACS-Seq: 1 mM; higher = higher reporter protein expression; conditions: ligand present: yes
# binarize FACS-Seq fitted mean (log10): threshold -0.08 inclusive, high side t, low side f

These solved cases illustrate the format of a correct answer.
sequence-entry: GCUGUCACCGAGAAACUGUGAAGUAUAUCUUAAACCUGGGCACUUAAAAGAUAUAUGGAGUUAGUAGUGCAACCUGCUCGGUCUGAUGAGUCCCCGAGCGGACGAAACAGC
category: t
//
sequence-entry: GCUGUCACCGAGAAACUGUGAAGUAUAUCUUAAACCUGGGCACUUAAAAGAUAUAUGGAGUUAGUAGUGCAACCUGCUCGGUCUGAUGAGUCCGCUCUUGGACGAAACAGC
category: f
//
sequence-entry: GCUGUCACCGAGAAACUGUGAAGUAUAUCUUAAACCUGGGCACUUAAAAGAUAUAUGGAGUUAGUAGUGCAACCUGCUCGGUCUGAUGAGUCCUAACGUGGACGAAACAGC
category: f

Query: Quick check, FACS-Seq fitted mean (log10) >= -0.08? GCUGUCACCGAGAAACUGUGAAGUAUAUCUUAAACCUGGGCACUUAAAAGAUAUAUGGAGUUAGUAGUGCAACCUGCUCGGUCUGAUGAGUCCUGUACUGGACGAAACAGC
Result: t

Query: Quick check, FACS-Seq fitted mean (log10) >= -0.08? GCUGUCACCGAGAAACUGUGAAGUAUAUCUUAAACCUGGGCACUUAAAAGAUAUAUGGAGUUAGUAGUGCAACCUGCUCGGUCUGAUGAGUCCAACUGGGGACGAAACAGC
Result: t

Query: Quick check, FACS-Seq fitted mean (log10) >= -0.08? GCUGUCACCGAGAAACUGUGAAGUAUAUCUUAAACCUGGGCACUUAAAAGAUAUAUGGAGUUAGUAGUGCAACCUGCUCGGUCUGAUGAGUCCCGUACUGGACGAAACAGC
Result: f
